// data source = patent US5876694A

- Assay explanation: Blocking experiment 2: effect of vesamicol pretreatment on radiotracer accumulation
- Assay type: in vivo, male Wistar rats
- Setup conditions: rat, blood, iv, 2 uCi, Group 1: vehicle pretreatment, 30 min postradiotracer; read-out: Accumulation after pretreatment, blood

- Molecule: "O[C@@H]1CCN(Cc2cccc([125I])c2)C[C@H]1N1CCC(c2ccccc2)CC1 (single isomer, unassigned) [(-)-[^125 I]12h]"
  tissue uptake at 0.5 h: "0.11 %ID/g"

----------
- Assay explanation: Tissue distribution of radiotracer in rats
- Assay type: in vivo, male Wistar rats
- Setup conditions: rat, blood; 180 min, iv; read-out: Tissue distribution, blood
- Protocol: Tissue Distribution Experiments Four groups of male Wistar rats (n=4) weighing 200-350 g were used in these experiments. […] The organs and tissues of interest were harvested, transferred to preweighed tubes and counted in a Beckman gamma counter. […] Preweighed tubes containing 1 mL samples of a 1:100 dilution of the injected dose were also counted and used as reference for calculating the tissue accumulation of radioactivity. […]

- Compound: "O[C@@H]1CCN(Cc2cccc([125I])c2)C[C@H]1N1CCC(c2ccccc2)CC1 (single isomer, unassigned) [(-)-[^125 I]12h]"
  tissue uptake at 3 h: "0.1 %ID/g"

----------
- Assay explanation: Tissue distribution of radiotracer in rats
- Type: in vivo, male Wistar rats
- Setup conditions: rat, muscle; 30 min, iv; read-out: Tissue distribution, muscle

- Compound: "O[C@@H]1CCN(Cc2cccc([125I])c2)C[C@H]1N1CCC(c2ccccc2)CC1 (single isomer, unassigned) [(-)-[^125 I]12h]"
  tissue uptake at 0.5 h: "0.3 %ID/g"

----------
- Assay explanation: Blocking experiment 1: co-injection of (dl)-vesamicol with radiotracer
- Assay type: in vivo, male Wistar rats
- Setup conditions: rat, spleen, iv, Group 1: radiotracer alone, 60 min, read-out: Blocking study, spleen

- Molecule: "O[C@@H]1CCN(Cc2cccc([125I])c2)C[C@H]1N1CCC(c2ccccc2)CC1 (single isomer, unassigned) [(-)-[^125 I]12h]"
  Units of measure: "%ID/g"
  tissue uptake at 1 h: 1.1

----------
- System: cholinergic neurotransmission
- Assay explanation: In vivo anticholinergic activity in mice (spasms, respiratory distress, paralysis, death)
- Design: key: LD: lethal dose; NR: no visible pharmacological reaction; +: visible anticholinergic effects; S: sluggishness and reduced locomotor activity
- Setup conditions: 5.0 umol/Kg ip
- Experimental: in vivo anticholinergic activity was evaluated in mice. Blockade of cholinergic neurotransmission (or anticholinergic activity) was manifested in a rapidly developing respiratory distress, spasms and paralysis. At lethal doses these symptoms were followed by death within 10 min. As evident in Table 3, several of the compounds tested were lethal at doses as low as 5 and 10 umol/Kg. […]
Reported property: Pharmacological activity in mice

- Molecule: "O[C@H]1CCN(Cc2cccc(I)c2)C[C@@H]1N1CCC(c2ccccc2)CC1 (relative stereo) [Compound 12h]"
  Observed: "LD"
- Molecule: "O[C@H]1CCN(Cc2cccc(Br)c2)C[C@@H]1N1CCC(c2ccccc2)CC1 (relative stereo) [Compound 12f]"
  Observed: "NR"
- Molecule: "O=C(c1ccccc1)N1CC[C@H](O)[C@@H](N2CCC(c3ccccc3)CC2)C1 [(+)-10a]"
  Observed: "LD"
- Molecule: "O=C(c1ccccc1)N1CC[C@@H](O)[C@H](N2CCC(c3ccccc3)CC2)C1 [(-)-10a]"
  Observed: "+"
- Molecule: "O[C@H]1CN(Cc2ccccc2Br)CC[C@@H]1N1CCC(c2ccccc2)CC1 (relative stereo) [Compound 11b]"
  Observed: "NR"
